# tested.on: β1-receptors of the heart (Canis lupus familiaris, UniProt P79148)
# Construct: from tissue; host or cells: heart (left ventricle) of anaesthetised mongrel dogs, in vivo
# Sequence (P79148 whole entry): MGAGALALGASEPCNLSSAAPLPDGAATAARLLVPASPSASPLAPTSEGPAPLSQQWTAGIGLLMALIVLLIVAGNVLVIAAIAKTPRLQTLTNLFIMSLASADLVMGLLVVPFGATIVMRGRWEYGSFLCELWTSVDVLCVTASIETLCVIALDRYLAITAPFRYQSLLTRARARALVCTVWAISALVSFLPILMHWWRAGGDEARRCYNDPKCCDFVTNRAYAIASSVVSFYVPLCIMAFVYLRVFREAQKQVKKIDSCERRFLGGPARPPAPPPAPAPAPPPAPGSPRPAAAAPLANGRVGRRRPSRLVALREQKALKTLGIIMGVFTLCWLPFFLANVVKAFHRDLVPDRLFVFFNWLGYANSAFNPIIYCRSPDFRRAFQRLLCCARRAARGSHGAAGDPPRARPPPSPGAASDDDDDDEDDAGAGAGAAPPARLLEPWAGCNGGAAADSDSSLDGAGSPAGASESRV
# method.notes: Inhibition of isoproterenol-induced increase in rate of pressure rise (Dp/dt max.) in left ventricle of anaesthetised dogs (β1-receptor inhibition)
# Format: in vivo, mongrel dogs
# conditions.used: relative ED 50; dogs; lower = more active
metric: Relative β1-receptor inhibition (reference substance = 100)
Answers are plain numbers.

>>> experimental_result("C=CCNC(=O)Nc1ccc(OCC(O)CNC(C)CC(O)c2cnc(C)nc2C)cc1 (centres unmarked)")
7.9
>>> experimental_result("Cc1ccc(C(O)CC(C)NCC(O)COc2ccc(OCCO)cc2)cn1 (centres unmarked)")
30.7
>>> experimental_result("CC(CC(O)c1cccnc1)NCC(O)COc1ccc(NC(=O)NC2CCCCC2)cc1 (centres unmarked)")
1.3

Count: 2. Required value per item: Relative β1-receptor inhibition (reference substance = 100).
1. COCCCCOc1ccc(OCC(O)CNC(C)CC(O)c2cnc(C)nc2C)cc1 (centres unmarked)
2. CCNC(=O)Nc1ccc(OCC(O)CNC(C)CC(O)c2cnc(C)nc2C)cc1 (centres unmarked)

Reply:
1: 37.4; 2: 39.1

Source of measurements: patent US4066768A
